Recorded values, source ChEMBL document CHEMBL1938272.

Molecular target: NAD(P)H dehydrogenase [quinone] 1 (Mus musculus)
Assay: Induction of QR1-mediated cytoprotective activity in mouse TAOc1 mutant Hepa cells at 50 uM assessed as cell survival
Type: cell-based
ENDPOINT LABEL: Survival

Consider the worked cases shown below.
{"SMILES STR": "Brc1ccccc1-c1nsc(-c2ccccc2Br)n1", "Survival": "99.1%"}
{"SMILES STR": "FC(F)(F)c1ccccc1-c1nsc(-c2ccccc2C(F)(F)F)n1", "Survival": "89.8%"}
{"SMILES STR": "Ic1cccc(-c2nsc(-c3cccc(I)c3)n2)c1", "Survival": "73.6%"}
{"SMILES STR": "Oc1cccc(-c2nsc(-c3cccc(O)c3)n2)c1", "Survival": "63.7%"}
{"SMILES STR": "Brc1cccc(-c2nsc(-c3cccc(Br)c3)n2)c1", "Survival": "77.7%"}

Look at this molecule and give its reported Survival. Brc1ccc(-c2nsc(-c3ccc(Br)cc3)n2)cc1
80.1%

###

Biological target: NAD(P)H dehydrogenase [quinone] 1 (Mus musculus)
Assay: Induction of QR1 activity in mouse BPrc1 cells using MTT as substrate by spectrophotometry
Type: cell-based
Catalogue of CD readings, one per entry.
Write the numeric value and append its unit.

Consider the worked cases shown below.
{"SMILES STR": "c1ccc(-c2nsc(-c3ccccc3)n2)cc1", "ENDPOINT LABEL": "CD", "OBSERVED VALUE": "49.7 µM"}
{"SMILES STR": "Oc1ccc(/C=C\\c2cc(O)cc(O)c2)cc1", "ENDPOINT LABEL": "CD", "OBSERVED VALUE": "49.7 µM"}
{"SMILES STR": "Cc1ccc(Cl)cc1-c1nsc(-c2cc(Cl)ccc2C)n1", "ENDPOINT LABEL": "CD", "OBSERVED VALUE": "4.4 µM"}
{"SMILES STR": "Cc1cc(Cl)ccc1-c1nsc(-c2ccc(Cl)cc2C)n1", "ENDPOINT LABEL": "CD", "OBSERVED VALUE": "2.8 µM"}

// switching to the query compound
Look at this compound and give its reported CD. Brc1cccc(-c2nsc(-c3cccc(Br)c3)n2)c1
6.5 µM

###

Target: NAD(P)H dehydrogenase [quinone] 1 (Mus musculus) (UniProt Q64669)
Sequence (Q64669 whole entry): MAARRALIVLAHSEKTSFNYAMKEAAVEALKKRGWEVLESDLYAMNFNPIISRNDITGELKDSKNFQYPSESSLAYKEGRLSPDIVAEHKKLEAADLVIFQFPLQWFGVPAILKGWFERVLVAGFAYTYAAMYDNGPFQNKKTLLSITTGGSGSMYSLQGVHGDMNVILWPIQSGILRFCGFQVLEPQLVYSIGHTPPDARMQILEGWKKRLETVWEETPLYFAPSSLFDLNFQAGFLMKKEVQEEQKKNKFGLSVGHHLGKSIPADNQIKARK
Assay: Induction of QR1-mediated cytoprotective activity in mouse TAOc1 mutant Hepa cells at 50 uM assessed as cell survival
Format: cell-based
Catalogue of Survival readings, one per entry.
Give just the numeric value; % need not be written.

{"SMILES STR": "Clc1ccc(Cl)c(-c2nsc(-c3cc(Cl)ccc3Cl)n2)c1", "TGT": "NAD(P)H dehydrogenase [quinone] 1 (Mus musculus) (UniProt Q64669)", "READOUT UNITS": "%", "Survival": 82.8}

Look at this molecule and give its reported Survival. Clc1ccc(-c2nsc(-c3ccc(Cl)cc3)n2)cc1
77.8

Next entry: Cc1cc(Br)ccc1-c1nsc(-c2ccc(Br)cc2C)n1
68.6

Next entry: Clc1cccc(-c2nsc(-c3cccc(Cl)c3Cl)n2)c1Cl
74.5

Next entry: Fc1cccc(-c2nsc(-c3cccc(F)c3)n2)c1
77.1

Next entry: Cc1ccc(Cl)cc1-c1nsc(-c2cc(Cl)ccc2C)n1
80.2

###

Catalogue of Survival readings, one per entry.
Biological target: UniProt:Q64669
Test: Induction of QR1-mediated cytoprotective activity in mouse BPrc1 cells at 50 uM assessed as cell survival
Assay type: cell-based
Write the numeric value and append its unit.

Consider the worked cases shown below.
{"SMILES STR": "c1ccc(-c2nsc(-c3ccccc3)n2)cc1", "OBSERVED VALUE": "77.8%"}
{"SMILES STR": "Fc1cccc(-c2nsc(-c3cccc(F)c3)n2)c1", "OBSERVED VALUE": "73.5%"}
{"SMILES STR": "Cc1ccc(Cl)cc1-c1nsc(-c2cc(Cl)ccc2C)n1", "OBSERVED VALUE": "91.5%"}
{"SMILES STR": "Oc1ccc(/C=C/c2cc(O)cc(O)c2)cc1", "OBSERVED VALUE": "86.3%"}
{"SMILES STR": "Ic1ccccc1-c1nsc(-c2ccccc2I)n1", "OBSERVED VALUE": "95.1%"}
{"SMILES STR": "Clc1ccc(-c2nsc(-c3ccc(Cl)cc3Cl)n2)c(Cl)c1", "OBSERVED VALUE": "89.8%"}

Kindly state the measured Survival obtained for Clc1ccccc1-c1nsc(-c2ccccc2Cl)n1 with UniProt:Q64669.
83.8%

Next entry: Clc1ccc(Cl)c(-c2nsc(-c3cc(Cl)ccc3Cl)n2)c1
94.7%
